- Tested on: Vero E6
- test-name: cell viability relative to DMSO; higher = less toxic
- condition-summary: 72 h; 1000 nM
Response field label takes YES when cell viability is strictly below 90% and NO in all other cases.

INSERT INTO measurements (compound, assigned_class) VALUES
  ('COc1cc2c(cc1OC)-c1c/c(=N\c3c(C)cc(C)cc3C)n(C)c(=O)n1CC2', 'NO'),
  ('CC[C@H](CO)Nc1nc(NCc2ccc(-c3ccccn3)cc2)c2ncn(C(C)C)c2n1 [CR8-(R)]', 'YES'),
  ('CNc1cc2c(Nc3cccc(Br)c3)ncnc2cn1', 'YES'),
  ('N=C(N)NC(=N)NCCc1ccccc1', 'NO'),
  ('CCn1cnc(C(=O)NC)c1C(=O)NC', 'NO'),
  ('O=C(O)CCCNC(=O)c1cccnc1', 'NO'),
  ('Nc1cc(F)ccc1NC(=O)/C=C/c1cnn(C/C=C/c2ccccc2)c1', 'NO'),
  ('CC1=C(C)C(=O)C(C(CCCCCC(=O)O)c2ccccc2)=C(C)C1=O (stereo not given)', 'NO'),
  ('Cc1coc2c1C(=O)C(=O)c1c-2ccc2c1CCCC2(C)C', 'NO');

----------
- Tested on: Caco-2
- test-name: cell viability relative to DMSO; higher = less toxic
- condition-summary: 72 h; 10 nM
# cell viability values compiled below
property-measured: cell viability (%)

INSERT INTO results (molecule, property_measured, meas_value) VALUES
  ('CNCCC(Oc1ccccc1OC)c1ccccc1 (configuration not stated)', 'cell viability', 96.2),
  ('CC/C(=C(\c1ccc(O)cc1)c1ccc(OCCN(C)C)cc1)c1ccccc1', 'cell viability', 91.2),
  ('COc1cc(S(C)(=O)=O)ccc1Nc1nc2ccc(-c3ccc(NC(=O)[C@H](C)c4ccc(F)cc4)cc3)cn2n1', 'cell viability', 96.4),
  ('O=P1(N(CCCl)CCCl)NCCCO1 (configuration not stated) [cyclophosphamide]', 'cell viability', 100),
  ('Cc1ccc(NC2=NCCN2)c(Cl)c1', 'cell viability', 101),
  ('CNc1ccc([N+](=O)[O-])cc1-n1cnc(-c2ccc(C(F)(F)F)cc2)c1', 'cell viability', 105),
  ('CCCNC(=O)N1N=C(c2ccc(N)cc2)c2cc3c(cc2C1C)OCO3 (configuration not stated)', 'cell viability', 102),
  ('O=C(Nc1ccccc1Br)N[C@@H]1CCN(c2ccc(C(F)(F)F)cn2)C1', 'cell viability', 97.2),
  ('CO[C@@]1(NC(=O)Cc2cccs2)C(=O)N2C(C(=O)O)=C(COC(N)=O)CS[C@@H]21', 'cell viability', 95.5),
  ('Cc1ccc(NC(=O)c2ccc(CN3CCN(C)CC3)cc2)cc1Nc1nc(-c2cccnc2)cs1', 'cell viability', 99.5),
  ('O=C1NC(=O)/C(=C/c2ccc3c(c2)OC(F)(F)O3)S1', 'cell viability', 97.9),
  ('CC[C@@]1(O)C(=O)OCc2c1cc1n(c2=O)Cc2cc3cc(O)ccc3nc2-1 [10-hydroxycamptothecin]', 'cell viability', 107),
  ('CN[C@@H](C)C(=O)N[C@H]1CCCC[C@H]2CC[C@@H](C(=O)N[C@@H](c3ccccc3)c3cn(CCCCc4ccc(CCCCn5cc([C@@H](NC(=O)[C@@H]6CC[C@@H]7CCCC[C@H](NC(=O)[C@H](C)NC)C(=O)N76)c6ccccc6)nn5)cc4)nn3)N2C1=O', 'cell viability', 109),
  ('CNC(=O)c1cc(Oc2ccc(NC(=O)Nc3cc(C(C)(C)C)nn3-c3ccc4ncccc4c3)c(F)c2)ccn1', 'cell viability', 89.9),
  ('Cc1cc(=O)[nH]c(=S)[nH]1', 'cell viability', 96.6),
  ('COc1cc2nc(N3CCCN(C)CC3)nc(NC3CCN(Cc4ccccc4)CC3)c2cc1OC', 'cell viability', 104),
  ('C=CC[C@]1(O)CC[C@H]2[C@@H]3CCC4=CC(=O)CCC4=C3C=C[C@@]21C', 'cell viability', 98.1);
